Assay: Mouse PK study (i.v. and p.o.)
Type: in vivo
Conditions: plasma, iv, male CD1 mice, 1 mg/kg i.v., read-out: AUClast (hr*ng/mL) i.v.
recorded-metric: AUC(0-t) (ng·h/mL)
Express your answer in ng·h/mL, writing the number without its unit.

>  <test-smiles>
C[C@@]1(O)CC[C@H]2[C@H](CC[C@@H]3[C@@H]2CC[C@]2(C)[C@@H](C(=O)Cn4nnn(-c5ccn[nH]5)c4=O)CC[C@@H]32)C1

>  <AUC(0-t) [ng·h/mL]>
2480

$$$$

Hello, please tell me recorded AUC(0-t) for this one: C[C@@]1(O)CC[C@H]2[C@H](CC[C@@H]3[C@@H]2CC[C@]2(C)[C@@H](C(=O)Cn4nnn(-c5ccc(F)cc5)c4=O)CC[C@@H]32)C1 1230

Provide one value: measured AUC(0-t) of C[C@@]1(O)CC[C@H]2[C@H](CC[C@@H]3[C@@H]2CC[C@]2(C)[C@@H](C(=O)Cn4nnn(C5CCCC5)c4=O)CC[C@@H]32)C1 117

Could you please provide reported AUC(0-t) for C[C@@]1(O)CC[C@H]2[C@H](CC[C@@H]3[C@@H]2CC[C@]2(C)[C@@H](C(=O)Cn4nnn(-c5ccncc5)c4=O)CC[C@@H]32)C1 ? Thanks! 381

Respond only with AUC(0-t) recorded for C[C@@]1(O)CC[C@H]2[C@H](CC[C@@H]3[C@@H]2CC[C@]2(C)[C@@H](C(=O)Cn4nnn(C(F)(F)F)c4=O)CC[C@@H]32)C1 118

Fill in AUC(0-t) for record COc1ccc(-n2nnn(CC(=O)[C@H]3CC[C@H]4[C@@H]5CC[C@@H]6C[C@](C)(O)CC[C@@H]6[C@H]5CC[C@]34C)c2=O)cc1 542

###

Assay: Mouse PK study (i.v. and p.o.)
Format: in vivo
Settings: plasma, iv, male CD1 mice, 1 mg/kg i.v., read-out: Vss
recorded-metric: Vd (L/kg)
Express your answer in L/kg, writing the number without its unit.

>  <test-smiles>
C[C@@]1(O)CC[C@H]2[C@H](CC[C@@H]3[C@@H]2CC[C@]2(C)[C@@H](C(=O)Cn4nnn(-c5cn[nH]c5)c4=O)CC[C@@H]32)C1

>  <Vd / L/kg>
2.9

$$$$
>  <test-smiles>
C[C@@]1(O)CC[C@H]2[C@H](CC[C@@H]3[C@@H]2CC[C@]2(C)[C@@H](C(=O)Cn4nnn(-c5cccc(F)c5)c4=O)CC[C@@H]32)C1

>  <Vd / L/kg>
2.86

$$$$

Specify measured Vd for COc1ccc(-n2nnn(CC(=O)[C@H]3CC[C@H]4[C@@H]5CC[C@@H]6C[C@](C)(O)CC[C@@H]6[C@H]5CC[C@]34C)c2=O)cc1 . 1.76

###

half-life: recorded values
Assay: Mouse PK study (i.v. and p.o.)
Assay type: in vivo
Conditions: plasma, iv, male CD1 mice, 1 mg/kg i.v., read-out: T1/2 (hr) i.v. (converted)

// known answers, use as guide
>  <compound>
C[C@@]1(O)CC[C@H]2[C@H](CC[C@@H]3[C@@H]2CC[C@]2(C)[C@@H](C(=O)Cn4nnn(-c5cccnc5)c4=O)CC[C@@H]32)C1 [Example 18]

>  <half-life>
0.29 h

$$$$
>  <compound>
C[C@@]1(O)CC[C@H]2[C@H](CC[C@@H]3[C@@H]2CC[C@]2(C)[C@@H](C(=O)Cn4nnn(-c5ccncc5)c4=O)CC[C@@H]32)C1 [Example 17]

>  <half-life>
0.84 h

$$$$

Please look at the following compound next.
Given the compound C[C@@]1(O)CC[C@H]2[C@H](CC[C@@H]3[C@@H]2CC[C@]2(C)[C@@H](C(=O)Cn4nnn(C5CCCC5)c4=O)CC[C@@H]32)C1 [Example 8] , write its reported half-life. 0.73 h

###

The entries below come with measured AUC(0-t) values attached.
Test: Mouse PK study (i.v. and p.o.)
Assay type: in vivo
Conditions: plasma, iv, male CD1 mice, 1 mg/kg i.v., read-out: AUClast (hr*ng/mL) i.v.
Unit ng·h/mL implied. Number only.

Example entries begin here.
>  <test-smiles>
C[C@@]1(O)CC[C@H]2[C@H](CC[C@@H]3[C@@H]2CC[C@]2(C)[C@@H](C(=O)Cn4nnn(-c5cccc(F)c5)c4=O)CC[C@@H]32)C1

>  <recorded-metric>
AUC(0-t)

>  <numeric-result>
1880

$$$$
>  <test-smiles>
C[C@@]1(O)CC[C@H]2[C@H](CC[C@@H]3[C@@H]2CC[C@]2(C)[C@@H](C(=O)Cn4nnn(-c5ccccc5)c4=O)CC[C@@H]32)C1

>  <recorded-metric>
AUC(0-t)

>  <numeric-result>
1840

$$$$
>  <test-smiles>
CC(C)n1nnn(CC(=O)[C@H]2CC[C@H]3[C@@H]4CC[C@@H]5C[C@](C)(O)CC[C@@H]5[C@H]4CC[C@]23C)c1=O

>  <recorded-metric>
AUC(0-t)

>  <numeric-result>
659

$$$$

Please report AUC(0-t) for the following compound: C[C@@]1(O)CC[C@H]2[C@H](CC[C@@H]3[C@@H]2CC[C@]2(C)[C@@H](C(=O)Cn4nnn(-c5cocn5)c4=O)CC[C@@H]32)C1 998

###

Experiment: Mouse PK study (i.v. and p.o.)
Format: in vivo
Settings: plasma, iv, male CD1 mice, 1 mg/kg i.v., read-out: T1/2 (hr) i.v. (converted)
Method: Test compounds were dosed to male CD1 mice at 5 mg/kg by oral gavage (p.o.) or 1 mg/kg by intravenous injection (i.v.). Blood samples were taken at 0.083, 0.25, 0.5, 1.0, 3.0, 6.0 and 24 hours post i.v. dosing and at 0.25, 0.5, 1.0, 3.0, 6.0 and 24 hours post p.o. dosing. The plasma concentration of compounds were determined by HPLC.
Note to self: values exactly at 1 h are 1. So half-life at or above 1 h is 1, below is -1.

>  <test-smiles>
CC(C)(C)n1nnn(CC(=O)[C@H]2CC[C@H]3[C@@H]4CC[C@@H]5C[C@](C)(O)CC[C@@H]5[C@H]4CC[C@]23C)c1=O

>  <category>
1

$$$$

Textbook exercise: given the entry C[C@@]1(O)CC[C@H]2[C@H](CC[C@@H]3[C@@H]2CC[C@]2(C)[C@@H](C(=O)Cn4nnn(-c5cocn5)c4=O)CC[C@@H]32)C1 , state whether its half-life is greater than or equal to 1 h. 1

Quick check: does Cn1ccc(-n2nnn(CC(=O)[C@H]3CC[C@H]4[C@@H]5CC[C@@H]6C[C@](C)(O)CC[C@@H]6[C@H]5CC[C@]34C)c2=O)n1 have half-life greater than or equal to 1 h? 1

Item COc1ccc(-n2nnn(CC(=O)[C@H]3CC[C@H]4[C@@H]5CC[C@@H]6C[C@](C)(O)CC[C@@H]6[C@H]5CC[C@]34C)c2=O)cc1 with half-life of 1 h or above? 1

Please check the record C[C@@]1(O)CC[C@H]2[C@H](CC[C@@H]3[C@@H]2CC[C@]2(C)[C@@H](C(=O)Cn4nnn(-c5cccc(F)c5)c4=O)CC[C@@H]32)C1 and state if its half-life is at or above 1 h. 1

Textbook exercise: given the entry C[C@@]1(O)CC[C@H]2[C@H](CC[C@@H]3[C@@H]2CC[C@]2(C)[C@@H](C(=O)Cn4nnn(-c5ccc(C#N)cc5)c4=O)CC[C@@H]32)C1 , state whether its half-life is greater than or equal to 1 h. 1

###

Target: α1β2γ2 GABAA receptor (Homo sapiens, UniProt P14867+P47870)
Sequence (P14867 28-456): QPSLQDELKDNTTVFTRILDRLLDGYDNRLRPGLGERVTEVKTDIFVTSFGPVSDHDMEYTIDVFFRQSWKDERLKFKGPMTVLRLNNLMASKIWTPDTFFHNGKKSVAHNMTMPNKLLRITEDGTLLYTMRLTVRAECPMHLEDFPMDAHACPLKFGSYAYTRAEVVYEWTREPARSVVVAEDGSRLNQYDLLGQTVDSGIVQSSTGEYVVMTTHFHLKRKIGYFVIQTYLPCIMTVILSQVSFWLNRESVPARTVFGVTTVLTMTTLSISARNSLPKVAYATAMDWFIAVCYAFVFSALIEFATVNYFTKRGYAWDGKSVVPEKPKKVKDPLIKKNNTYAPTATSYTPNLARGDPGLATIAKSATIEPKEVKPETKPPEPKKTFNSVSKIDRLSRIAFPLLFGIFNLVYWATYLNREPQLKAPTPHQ
Sequence (P47870 25-512 limits assumed): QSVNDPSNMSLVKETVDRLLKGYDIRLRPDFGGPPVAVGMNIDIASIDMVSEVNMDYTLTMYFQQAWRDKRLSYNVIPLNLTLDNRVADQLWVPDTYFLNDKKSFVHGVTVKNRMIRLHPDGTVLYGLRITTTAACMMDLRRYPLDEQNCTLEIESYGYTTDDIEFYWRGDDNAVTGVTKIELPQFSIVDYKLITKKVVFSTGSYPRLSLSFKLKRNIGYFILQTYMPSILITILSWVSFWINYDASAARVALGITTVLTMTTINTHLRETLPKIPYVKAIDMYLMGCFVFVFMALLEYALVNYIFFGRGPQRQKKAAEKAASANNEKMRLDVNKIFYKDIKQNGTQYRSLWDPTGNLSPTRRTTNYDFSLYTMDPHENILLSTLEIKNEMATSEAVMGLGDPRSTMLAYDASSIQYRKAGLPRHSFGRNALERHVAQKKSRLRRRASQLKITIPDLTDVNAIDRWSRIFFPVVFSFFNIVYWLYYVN
Sequence (P18507 40-475 partner): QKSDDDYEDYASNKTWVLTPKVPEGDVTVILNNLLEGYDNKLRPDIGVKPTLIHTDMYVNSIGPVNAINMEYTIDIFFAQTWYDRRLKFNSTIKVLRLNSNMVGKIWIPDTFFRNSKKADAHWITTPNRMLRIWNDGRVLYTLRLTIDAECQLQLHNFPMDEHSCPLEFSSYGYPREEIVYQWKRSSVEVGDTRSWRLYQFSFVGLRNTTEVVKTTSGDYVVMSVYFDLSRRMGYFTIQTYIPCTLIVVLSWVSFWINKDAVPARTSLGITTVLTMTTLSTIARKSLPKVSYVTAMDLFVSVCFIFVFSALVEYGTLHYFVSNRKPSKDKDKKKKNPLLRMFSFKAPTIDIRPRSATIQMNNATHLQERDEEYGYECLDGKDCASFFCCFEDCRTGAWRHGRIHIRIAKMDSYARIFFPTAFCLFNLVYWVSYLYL
Test: Patch clamp electrophysiology assay of recombinant α1β2γ2 GABAA receptors (potentiation of 2 μM GABA-evoked Cl- current)
Conditions: HEK293T cells stably transfected with α1β2γ2 GABAA; whole cell, 2 μM GABA, -80 mV
// returns Criterion not met unless EC50 is strictly below 100 nM, in which case Criterion met

Some solved entries appear below for comparison.
>  <test-smiles>
C[C@@]1(O)CC[C@H]2[C@H](CC[C@@H]3[C@@H]2CC[C@]2(C)[C@@H](C(=O)Cn4nnn(CCC#N)c4=O)CC[C@@H]32)C1

>  <category>
Criterion not met

$$$$
>  <test-smiles>
CC(C)n1nnn(CC(=O)[C@H]2CC[C@H]3[C@@H]4CC[C@@H]5C[C@](C)(O)CC[C@@H]5[C@H]4CC[C@]23C)c1=O

>  <category>
Criterion not met

$$$$
>  <test-smiles>
C[C@@]1(O)CC[C@H]2[C@H](CC[C@@H]3[C@@H]2CC[C@]2(C)[C@@H](C(=O)Cn4nnn(-c5ccc(F)cc5)c4=O)CC[C@@H]32)C1

>  <category>
Criterion met

$$$$
>  <test-smiles>
Cn1cc(-n2nnn(CC(=O)[C@H]3CC[C@H]4[C@@H]5CC[C@@H]6C[C@](C)(O)CC[C@@H]6[C@H]5CC[C@]34C)c2=O)cn1

>  <category>
Criterion not met

$$$$
>  <test-smiles>
C[C@@]1(O)CC[C@H]2[C@H](CC[C@@H]3[C@@H]2CC[C@]2(C)[C@@H](C(=O)Cn4nnn(-c5cccc(C#N)c5)c4=O)CC[C@@H]32)C1

>  <category>
Criterion met

$$$$

Does CC(C)(C)n1nnn(CC(=O)[C@H]2CC[C@H]3[C@@H]4CC[C@@H]5C[C@](C)(O)CC[C@@H]5[C@H]4CC[C@]23C)c1=O have EC50 strictly under 100 nM? Criterion not met

# strict comparison: is reported EC50 < 100 nM? input = C[C@@]1(O)CC[C@H]2[C@H](CC[C@@H]3[C@@H]2CC[C@]2(C)[C@@H](C(=O)Cn4nnn(-c5ccc(C#N)cc5)c4=O)CC[C@@H]32)C1 Criterion met

Dear colleague, could you confirm whether EC50 of C[C@@]1(O)CC[C@H]2[C@H](CC[C@@H]3[C@@H]2CC[C@]2(C)[C@@H](C(=O)Cn4nnn(-c5ccncc5)c4=O)CC[C@@H]32)C1 falls below 100 nM? Thanks. Criterion met

Hi there! Is EC50 for C[C@@]1(O)CC[C@H]2[C@H](CC[C@@H]3[C@@H]2CC[C@]2(C)[C@@H](C(=O)Cn4nnn(-c5cocn5)c4=O)CC[C@@H]32)C1 below 100 nM, do you know? Criterion met

Does this molecule meet the criterion EC50 < 100 nM? CCn1nnn(CC(=O)[C@H]2CC[C@H]3[C@@H]4CC[C@@H]5C[C@](C)(O)CC[C@@H]5[C@H]4CC[C@]23C)c1=O Criterion met
